Origin of the recorded values: PubChem BioAssay (NCATS)

# Tested on: PAD
# Method description: qHTS profiling for inhibitors of Plasmodium falciparum proliferation (AID 504749); also: nearly all actives have a fitted effect of over 60% in size
# Applied conditions: P. falciparum in erythrocytes, SYBR Green DNA, 72 h; series mostly up to 28.7 µM
Records with an inconclusive call do not appear. Active and inactive are the calls of the source. Calls follow the shape of the dose curve; as a rule, active = well fitted inhibition curve with a large enough effect; inconclusive = small, poorly fitted or top-dose-only effect; inactive = flat fitted curve, though single readings scatter.
Please state which outcome applies, choosing from true (1) (active), false (0) (inactive)

Prompt line: Hi team, can someone confirm the assay call for CCC(=O)O[C@@H](OP(=O)(CCCCc1ccccc1)CC(=O)N1C[C@H](C2CCCCC2)C[C@H]1C(=O)O)C(C)C (stereo partly specified) ?
Response line: false (0)

Prompt line: Would you mind telling me which call this test gave CC(C)CN(C[C@@H](O)[C@H](Cc1ccccc1)NC(=O)O[C@H]1CCOC1)S(=O)(=O)c1ccc(N)cc1 ?
Response line: false (0)

Prompt line: Could you check what this test reported for CCN1/C(=C/C=C/C=C/c2sc3ccccc3[n+]2CC)Sc2ccccc21 ?
Response line: true (1)

Prompt line: Recorded call for C1OCOCO1 ?
Response line: false (0)

Prompt line: What call does the record list for CO/N=C(/C(=O)N[C@@H]1C(=O)N2C(C(=O)O)=CCS[C@H]12)c1csc(N)n1 ?
Response line: false (0)

Prompt line: Status in this test for S=C1NC=NC2N=CNC12 (stereo unspecified) ?
Response line: false (0)
